biological target: Recombinant Human Poly(ADP-Ribose) Polymerase (PARP), PARP-1 (Homo sapiens (Human), UniProt P09874); conditions: read-out: PARP-1 (Ki); Table 1; text calls the values EC50s
Sequence (P09874 whole entry): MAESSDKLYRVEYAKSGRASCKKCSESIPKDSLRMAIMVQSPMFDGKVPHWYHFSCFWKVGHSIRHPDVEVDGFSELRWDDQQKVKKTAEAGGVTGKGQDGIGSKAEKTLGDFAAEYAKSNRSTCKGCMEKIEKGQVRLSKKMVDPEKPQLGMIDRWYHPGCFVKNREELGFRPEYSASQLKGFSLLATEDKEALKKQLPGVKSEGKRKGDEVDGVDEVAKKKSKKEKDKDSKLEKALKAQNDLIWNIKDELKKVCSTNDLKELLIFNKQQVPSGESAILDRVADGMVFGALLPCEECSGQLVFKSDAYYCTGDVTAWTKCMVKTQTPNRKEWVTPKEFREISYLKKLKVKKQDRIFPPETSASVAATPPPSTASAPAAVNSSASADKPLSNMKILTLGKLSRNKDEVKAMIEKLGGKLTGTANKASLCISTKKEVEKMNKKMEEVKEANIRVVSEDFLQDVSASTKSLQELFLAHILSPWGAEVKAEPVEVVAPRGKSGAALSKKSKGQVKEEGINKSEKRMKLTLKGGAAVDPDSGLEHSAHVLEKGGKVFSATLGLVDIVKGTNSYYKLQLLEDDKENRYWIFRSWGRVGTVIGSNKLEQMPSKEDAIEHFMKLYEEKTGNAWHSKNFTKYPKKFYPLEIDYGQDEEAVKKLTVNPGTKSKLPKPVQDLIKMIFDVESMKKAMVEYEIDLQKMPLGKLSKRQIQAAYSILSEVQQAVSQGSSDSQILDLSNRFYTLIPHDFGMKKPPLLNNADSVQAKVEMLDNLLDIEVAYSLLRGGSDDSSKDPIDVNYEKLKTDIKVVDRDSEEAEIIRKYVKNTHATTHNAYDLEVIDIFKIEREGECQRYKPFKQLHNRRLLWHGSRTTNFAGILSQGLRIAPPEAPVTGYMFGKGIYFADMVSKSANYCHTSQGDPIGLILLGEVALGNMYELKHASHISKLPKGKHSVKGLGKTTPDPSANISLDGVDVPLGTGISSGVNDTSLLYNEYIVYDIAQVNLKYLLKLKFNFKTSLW
Observed property: Ki (nM)

# count of solved cases: 3
[[record]]
compound = "O=C(Nc1ccc2ncccc2c1)c1cccc(Cc2n[nH]c(=O)c3c2CCCC3)c1"
quantitative_readout = 23

[[record]]
compound = "O=C(NCCCN1CCCC1)c1cccc(Cc2n[nH]c(=O)c3c2CCCC3)c1"
quantitative_readout = 23

[[record]]
compound = "O=C1C2CCCCC2C(=O)N1c1cc(Cc2n[nH]c(=O)c3c2CCCC3)ccc1F (centres unmarked)"
quantitative_readout = 2


[I] O=C(CCc1ccc(Cl)cc1)Nc1cccc(Cc2n[nH]c(=O)c3c2CCCC3)c1
[II] CN(CCc1ccccn1)C(=O)c1cccc(Cc2n[nH]c(=O)c3c2CCCC3)c1
Hey, between I and II which has a smaller measured Ki? Use the label to indicate which entry you chose.
II
(II: 14 nM, I: 99 nM)

[P] O=C(c1ccc(O)nc1)N1CCN(C(=O)c2cc(Cc3n[nH]c(=O)c4c3NCCC4)ccc2F)CC1
[Q] O=C(Nc1cccc(Cc2n[nH]c(=O)c3c2CCCC3)c1)c1ccc(F)cc1F
Param pair: P , Q . Output: the one whose Ki is numerically greater. // caller expects the label of the chosen entry
Q
(Q: 292 nM, P: 0.6 nM)

[A] O=C(c1cc(Cc2n[nH]c(=O)c3c2CCCC3)ccc1F)N1CCN(c2cnccn2)CC1
[B] O=C(c1cc(Cc2n[nH]c(=O)c3c2CCCC3)ccc1F)N1CCN(C2CCCC2)CC1
[C] Cc1cc(C(=O)Nc2cccc(Cc3n[nH]c(=O)c4c3CCCC4)c2)c(C)[nH]1
Number of compounds to sort: 3. Sort criterion: Ki, ascending. A ranking is expressed here by listing the labels in the requested order.
A, B, C
(A: 0.8 nM, B: 2 nM, C: 93 nM)

====

target: Recombinant Human Poly(ADP-Ribose) Polymerase (PARP), PARP-1 (Homo sapiens (Human), UniProt P09874); settings: read-out: PARP-1 (Ki); Table 1; text calls the values EC50s
pKi: −log10 of the molar value.
Observed property: pKi

[[record]]
compound = "CCN(CC)C(=O)N1CCN(C(=O)c2cc(Cc3n[nH]c(=O)c4c3NCCC4)ccc2F)CC1"
quantitative_readout = 8.96

[[record]]
compound = "O=C(c1cnc(O)c(Cl)c1)N1CCN(C(=O)c2cc(Cc3n[nH]c(=O)c4c3CCCC4)ccc2F)CC1"
quantitative_readout = 8.89

[[record]]
compound = "CCN1CCN(C(=O)c2cccc(Cc3n[nH]c(=O)c4c3CCCC4)c2)CC1"
quantitative_readout = 8.00

[[record]]
compound = "CCN(CCN)C(=O)c1cc(Cc2n[nH]c(=O)c3c2CCCC3)ccc1F"
quantitative_readout = 8.15

[[record]]
compound = "CC(Cc1n[nH]c(=O)c2c1CCCC2)c1cccc(-c2cccc(C(=O)NCCN(C)C)c2)c1 (centres unmarked)"
quantitative_readout = 5.77

[[record]]
compound = "O=C(NCCc1cccc(F)c1)c1cccc(Cc2n[nH]c(=O)c3c2CCCC3)c1"
quantitative_readout = 7.48


[P] COc1cc(NC(=O)c2cccc(Cc3n[nH]c(=O)c4c3CCCC4)c2)cc(C(F)(F)F)c1
[Q] O=c1[nH]nc(Cc2cc[n+]([O-])c(Br)c2)c2c1CCCC2
Lab note: check whether P or Q shows the higher recorded pKi. Lab note: record the label of whichever item you select.
P
(P: 6.47, Q: 5.98)

This collection of values is drawn from patent US9283222B2.
